experiment: Selectivity measured as CB2/CB1
experimental.readout: Selectivity
Answer with a bare number; do not write a unit.

# given.smiles, endpoint.result
records = [
    ("Cc1c(C(=O)NCCCO)nn(-c2ccc(Cl)cc2Cl)c1-c1ccc(Cl)cc1", 8),
]

molecule `Cc1c(C(=O)NO)nn(-c2ccc(Cl)cc2Cl)c1-c1ccc(Cl)cc1` , Selectivity observed: 5

molecule `Cc1c(C(=O)NCC(C)C)nn(-c2ccc(Cl)cc2Cl)c1-c1ccc(Cl)cc1` , Selectivity observed: 61

molecule `Cc1c(C(=O)N[C@@H](C)CO)nn(-c2ccc(Cl)cc2Cl)c1-c1ccc(Cl)cc1` , Selectivity observed: 50

###

species: Rattus norvegicus; experiment: Maximum concentration based on [35S]GTP-gamma-S binding assay in rat membranes; type: functional
experimental.readout: Emax
Answer with a bare number; do not write a unit.

# given.smiles, Emax
rows = [
    ("Cc1c(C(=O)N[C@@H](C)CO)nn(-c2ccc(Cl)cc2Cl)c1-c1ccc(Cl)cc1", -83.8),
    ("Cc1c(C(=O)NCCCCO)nn(-c2ccc(Cl)cc2Cl)c1-c1ccc(Cl)cc1", -79.5),
    ("Cc1c(C(=O)NN)nn(-c2ccc(Cl)cc2Cl)c1-c1ccc(Cl)cc1", -71.7),
    ("CCCCCCNC(=O)c1nn(-c2ccc(Cl)cc2Cl)c(-c2ccc(Cl)cc2)c1C", -13),
    ("CCCCCNC(=O)c1nn(-c2ccc(Cl)cc2Cl)c(-c2ccc(Cl)cc2)c1C", -7.4),
    ("Cc1c(C(=O)NCC(C)C)nn(-c2ccc(Cl)cc2Cl)c1-c1ccc(Cl)cc1", -11),
]

compound `CCNC(=O)c1nn(-c2ccc(Cl)cc2Cl)c(-c2ccc(Cl)cc2)c1C` , Emax observed: -46.9

compound `Cc1c(C(=O)NCCO)nn(-c2ccc(Cl)cc2Cl)c1-c1ccc(Cl)cc1` , Emax observed: -76.5

compound `Cc1c(C(=O)N[C@H](C)CO)nn(-c2ccc(Cl)cc2Cl)c1-c1ccc(Cl)cc1` , Emax observed: -83

compound `Cc1c(C(=O)NCCCO)nn(-c2ccc(Cl)cc2Cl)c1-c1ccc(Cl)cc1` , Emax observed: -83.3

compound `Cc1c(C(=O)NC2CCCCC2)nn(-c2ccc(Cl)cc2Cl)c1-c1ccc(Cl)cc1` , Emax observed: -22.1

compound `CCCNC(=O)c1nn(-c2ccc(Cl)cc2Cl)c(-c2ccc(Cl)cc2)c1C` , Emax observed: -35.7

compound `Cc1c(C(=O)NC(C)C)nn(-c2ccc(Cl)cc2Cl)c1-c1ccc(Cl)cc1` , Emax observed: -46.4

compound `Cc1c(C(=O)NN2CCOCC2)nn(-c2ccc(Cl)cc2Cl)c1-c1ccc(Cl)cc1` , Emax observed: -76.3

compound `CCCCNC(=O)c1nn(-c2ccc(Cl)cc2Cl)c(-c2ccc(Cl)cc2)c1C` , Emax observed: -38.5

###

biological target: Cannabinoid receptor 2 (Homo sapiens)
Sequence (P34972 whole entry): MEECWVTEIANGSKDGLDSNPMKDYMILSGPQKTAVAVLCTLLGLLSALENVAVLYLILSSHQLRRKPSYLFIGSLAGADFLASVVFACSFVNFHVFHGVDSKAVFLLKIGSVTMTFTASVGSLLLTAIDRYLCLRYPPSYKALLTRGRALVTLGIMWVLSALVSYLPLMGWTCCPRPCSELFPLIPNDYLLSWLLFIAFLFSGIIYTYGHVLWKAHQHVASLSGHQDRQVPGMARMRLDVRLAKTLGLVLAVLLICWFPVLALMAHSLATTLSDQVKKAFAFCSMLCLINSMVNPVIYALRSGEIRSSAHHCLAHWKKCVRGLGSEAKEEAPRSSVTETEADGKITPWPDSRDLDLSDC
experimental.readout: pKi
In plain terms, pKi is the concentration in mol/L turned into minus its base-10 logarithm.

pKi on Cannabinoid receptor 2 (Homo sapiens) for `Cc1c(C(=O)N[C@H](C)CO)nn(-c2ccc(Cl)cc2Cl)c1-c1ccc(Cl)cc1` is 5.75

###

organism: Rattus norvegicus; test: The effective concentration using [35S]GTP-gamma-S binding assay in rat membranes; format: functional
experimental.readout: log10 EC50 (log10 of the value in µM)
A difference of one corresponds to tenfold EC50; all values are log10 with EC50 in µM.

compound `Cc1c(C(=O)NCC(C)C)nn(-c2ccc(Cl)cc2Cl)c1-c1ccc(Cl)cc1` , log10 EC50 observed: 0.88

Values compiled from ChEMBL document CHEMBL1135582.
